value-type: melting point

Consider the following illustrative entries.
compound | value-type | measurement
COc1ccc(NC(C)=O)c(Sc2ccc([N+](=O)[O-])cc2[N+](=O)[O-])c1 | melting point | 125 to 126 °C
CC(C)(O)c1nnc(-c2ccc3ncn(-c4ccc(OC(F)(F)F)cc4)c3c2)o1 | melting point | 159 to 160 °C
c1ccc2c(c1)cnn2N1CCNCC1 | melting point | 153 °C

q: So what's the measured melting point for this one? COc1cc2c(cc1-c1ccccc1F)NC(=O)CC(c1cc(C#N)ccc1F)=N2
a: > 250 °C

q: So what's the measured melting point for this one? CC(CS(=O)(=O)c1ccccc1)C1CCC2C3CC=C4C(C)(C)C(O)CCC4(C)C3CCC12C (stereo unspecified)
a: 176 to 181 °C

q: So what's the measured melting point for this one? CCOC(=O)c1cn([C@@H](CSc2cccc(Cl)c2Cl)[C@H](C)O)cn1
a: 141 to 143 °C
